Entry source: ChEMBL document CHEMBL3797082

- system_name: Dual specificity tyrosine-phosphorylation-regulated kinase 1A (Rattus norvegicus) (UniProt Q63470)
- method_summary: Inhibition of recombinant rat N-terminal GST-tagged DYRK1A (1 to 499 residues) expressed in Escherichia coli using KKISGRLSPIMTEQ-NH2 as substrate at 100 uM incubated for 10 mins by scintillation counting method relative to control
recorded_endpoint: inhibition (%)
// note: answer is a bare numeric in %

Examples from the recorded data:
COc1ccc(-c2nnc3c(NCCN4CCOCC4)cccn23)cc1OC 26
C/C(=N\Nc1ccc2ccccc2n1)c1ccccc1O 9
COc1ccc(/C=N/Nc2cc(C)c3ccccc3n2)cc1 0

# next compound below
**Q:** What measured inhibition goes with `Cc1cc(N/N=C/c2ccc(O)cc2)nc2ccccc12` ?
**A:** 22

---

Entries and their measured inhibition follow.
- system_name: Proto-oncogene tyrosine-protein kinase Src (Homo sapiens) (UniProt P12931)
- Sequence (P12931 2-536 limits assumed): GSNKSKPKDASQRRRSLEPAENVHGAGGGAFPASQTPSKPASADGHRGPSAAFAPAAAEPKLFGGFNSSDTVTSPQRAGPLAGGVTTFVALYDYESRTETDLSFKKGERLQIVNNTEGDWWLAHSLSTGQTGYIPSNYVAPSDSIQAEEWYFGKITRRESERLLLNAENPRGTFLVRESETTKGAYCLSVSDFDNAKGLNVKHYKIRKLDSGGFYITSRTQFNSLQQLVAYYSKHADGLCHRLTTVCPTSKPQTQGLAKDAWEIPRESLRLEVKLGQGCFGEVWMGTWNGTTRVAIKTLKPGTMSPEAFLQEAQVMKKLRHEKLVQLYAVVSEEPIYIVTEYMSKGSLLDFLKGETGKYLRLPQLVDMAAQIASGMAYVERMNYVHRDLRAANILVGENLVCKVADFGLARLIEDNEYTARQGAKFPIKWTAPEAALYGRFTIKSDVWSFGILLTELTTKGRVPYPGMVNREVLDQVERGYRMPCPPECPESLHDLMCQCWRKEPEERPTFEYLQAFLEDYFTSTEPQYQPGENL
- method_summary: Inhibition of full length human recombinant N-terminal His6-tagged SRC expressed in baculovirus infected sf21 cells using KVEKIGEGTYGVVYK as substrate at 100 uM incubated for 10 mins by scintillation counting method relative to control
// note: answer is a bare numeric in %

Examples from the recorded data:
C/C(=N\Nc1ccc2ccccc2n1)c1ccccc1O 5
COc1ccc(-c2nnc3c(NCCN4CCOCC4)cccn23)cc1OC 40
Cc1cc(N/N=C/c2ccc(O)cc2)nc2ccccc12 21

# next compound below
**Q:** What measured inhibition goes with `COc1ccc(/C=N/Nc2cc(C)c3ccccc3n2)cc1` ?
**A:** 31

---

- system_name: Leucine-rich repeat serine/threonine-protein kinase 2 (Homo sapiens, UniProt Q5S007, G2019S)
- Sequence (Q5S007 whole entry G2019S): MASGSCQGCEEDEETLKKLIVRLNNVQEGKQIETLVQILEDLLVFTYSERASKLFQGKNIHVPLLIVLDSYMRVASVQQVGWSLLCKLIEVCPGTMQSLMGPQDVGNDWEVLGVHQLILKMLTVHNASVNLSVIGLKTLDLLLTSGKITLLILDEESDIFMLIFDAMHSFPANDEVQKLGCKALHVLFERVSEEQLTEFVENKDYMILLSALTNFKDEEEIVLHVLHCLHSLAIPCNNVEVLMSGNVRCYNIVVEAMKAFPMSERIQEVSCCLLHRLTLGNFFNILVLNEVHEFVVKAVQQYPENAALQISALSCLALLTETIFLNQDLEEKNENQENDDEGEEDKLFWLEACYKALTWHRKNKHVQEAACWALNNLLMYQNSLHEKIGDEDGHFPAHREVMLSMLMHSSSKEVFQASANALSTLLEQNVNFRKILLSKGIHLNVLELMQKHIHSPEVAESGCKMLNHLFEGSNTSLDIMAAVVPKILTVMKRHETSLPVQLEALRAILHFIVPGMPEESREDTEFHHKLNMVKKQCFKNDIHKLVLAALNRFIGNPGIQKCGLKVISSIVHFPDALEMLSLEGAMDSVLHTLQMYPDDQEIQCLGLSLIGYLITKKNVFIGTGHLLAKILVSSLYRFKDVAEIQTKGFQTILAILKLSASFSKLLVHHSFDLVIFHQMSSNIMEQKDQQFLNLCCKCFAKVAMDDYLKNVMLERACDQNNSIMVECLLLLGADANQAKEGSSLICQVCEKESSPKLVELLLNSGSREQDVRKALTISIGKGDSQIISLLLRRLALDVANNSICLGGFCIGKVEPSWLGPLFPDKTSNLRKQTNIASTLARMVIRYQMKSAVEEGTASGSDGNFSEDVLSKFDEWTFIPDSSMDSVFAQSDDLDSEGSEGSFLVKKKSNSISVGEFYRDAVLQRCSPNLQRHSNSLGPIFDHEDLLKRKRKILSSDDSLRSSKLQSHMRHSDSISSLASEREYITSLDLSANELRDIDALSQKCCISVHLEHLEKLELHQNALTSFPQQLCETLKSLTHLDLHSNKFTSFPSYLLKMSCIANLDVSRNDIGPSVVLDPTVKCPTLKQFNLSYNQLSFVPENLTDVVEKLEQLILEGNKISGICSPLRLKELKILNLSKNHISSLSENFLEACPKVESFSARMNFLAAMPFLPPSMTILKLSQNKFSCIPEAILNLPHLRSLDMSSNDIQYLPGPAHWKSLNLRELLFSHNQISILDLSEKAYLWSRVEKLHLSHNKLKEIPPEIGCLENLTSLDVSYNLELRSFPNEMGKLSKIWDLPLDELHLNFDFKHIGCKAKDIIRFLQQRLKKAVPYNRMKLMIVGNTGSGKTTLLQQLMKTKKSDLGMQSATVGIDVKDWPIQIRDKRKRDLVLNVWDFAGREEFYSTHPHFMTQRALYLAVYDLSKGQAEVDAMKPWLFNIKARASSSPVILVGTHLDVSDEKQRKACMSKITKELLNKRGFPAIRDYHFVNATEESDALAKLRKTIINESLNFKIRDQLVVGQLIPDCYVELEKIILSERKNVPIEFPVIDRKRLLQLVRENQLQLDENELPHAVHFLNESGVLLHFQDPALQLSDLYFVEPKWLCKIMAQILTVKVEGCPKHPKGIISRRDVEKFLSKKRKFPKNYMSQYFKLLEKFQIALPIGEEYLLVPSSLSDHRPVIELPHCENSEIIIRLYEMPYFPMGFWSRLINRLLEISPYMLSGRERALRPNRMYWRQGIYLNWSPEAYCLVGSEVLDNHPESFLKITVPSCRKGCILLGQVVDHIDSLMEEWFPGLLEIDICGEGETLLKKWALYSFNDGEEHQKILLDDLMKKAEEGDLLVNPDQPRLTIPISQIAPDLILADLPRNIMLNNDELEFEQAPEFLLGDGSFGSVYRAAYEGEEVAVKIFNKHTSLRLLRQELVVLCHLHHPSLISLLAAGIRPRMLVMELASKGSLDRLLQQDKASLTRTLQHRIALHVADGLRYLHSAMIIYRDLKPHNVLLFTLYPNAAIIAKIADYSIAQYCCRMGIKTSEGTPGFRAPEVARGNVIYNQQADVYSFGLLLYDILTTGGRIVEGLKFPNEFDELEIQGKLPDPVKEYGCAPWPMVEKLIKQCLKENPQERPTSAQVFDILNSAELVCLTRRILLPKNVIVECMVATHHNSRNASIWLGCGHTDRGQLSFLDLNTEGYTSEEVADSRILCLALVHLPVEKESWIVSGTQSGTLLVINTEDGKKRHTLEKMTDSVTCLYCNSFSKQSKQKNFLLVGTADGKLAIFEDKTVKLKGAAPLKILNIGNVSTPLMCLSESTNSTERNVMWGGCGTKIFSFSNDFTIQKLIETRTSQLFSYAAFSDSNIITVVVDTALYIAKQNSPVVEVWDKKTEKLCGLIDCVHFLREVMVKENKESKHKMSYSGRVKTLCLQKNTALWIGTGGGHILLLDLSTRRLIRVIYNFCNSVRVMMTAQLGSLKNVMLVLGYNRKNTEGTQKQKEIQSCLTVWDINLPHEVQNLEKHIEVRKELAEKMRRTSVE
- method_summary: Mixed type inhibition of human recombinant GST-tagged LRRK2 G2019S mutant (970 residues) expressed in baculovirus expression system assessed as enzyme-substrate-inhibitor complex by Michaelis-Menten kinetics in presence of varying level of ATP
recorded_endpoint: Ki
Could you write the number and then its unit?

COc1ccc(/C=N/Nc2cc(C)c3ccccc3n2)cc1 1800 nM

**Q:** What measured Ki goes with `Cc1cc(N/N=C/c2ccc(O)cc2)nc2ccccc12` ?
**A:** 2590 nM

**Q:** What measured Ki goes with `C/C(=N\Nc1ccc2ccccc2n1)c1ccccc1O` ?
**A:** 18400 nM

---

- system_name: Glycogen synthase kinase-3 beta (Homo sapiens) (UniProt P49841)
- Sequence (P49841 whole entry, looked up): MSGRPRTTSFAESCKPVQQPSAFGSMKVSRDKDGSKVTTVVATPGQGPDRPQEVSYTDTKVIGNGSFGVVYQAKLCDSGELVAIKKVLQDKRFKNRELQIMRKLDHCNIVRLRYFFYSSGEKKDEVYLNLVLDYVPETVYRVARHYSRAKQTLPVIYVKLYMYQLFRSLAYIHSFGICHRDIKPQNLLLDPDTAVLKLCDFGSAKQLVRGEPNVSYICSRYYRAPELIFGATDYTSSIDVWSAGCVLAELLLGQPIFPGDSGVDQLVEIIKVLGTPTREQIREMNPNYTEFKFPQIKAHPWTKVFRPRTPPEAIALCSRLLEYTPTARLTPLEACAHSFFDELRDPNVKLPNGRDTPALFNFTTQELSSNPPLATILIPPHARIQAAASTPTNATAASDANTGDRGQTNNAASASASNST
- method_summary: Inhibition of full length human recombinant N-terminal GST-tagged GSK3beta expressed in baculovirus infected sf9 cells using GSK3 substrate at 100 uM incubated for 10 mins by scintillation counting method relative to control
Entries and their measured inhibition follow.
// note: answer is a bare numeric in %

Examples from the recorded data:
C/C(=N\Nc1ccc2ccccc2n1)c1ccccc1O 1
COc1ccc(-c2nnc3c(NCCN4CCOCC4)cccn23)cc1OC 14

**Q:** What measured inhibition goes with `Cc1cc(N/N=C/c2ccc(O)cc2)nc2ccccc12` ?
**A:** 0

**Q:** What measured inhibition goes with `COc1ccc(/C=N/Nc2cc(C)c3ccccc3n2)cc1` ?
**A:** 0

---

Entries and their measured Selectivity ratio follow.
- method_summary: Selectivity ratio of ID50 for human recombinant N-terminal GST-tagged LRRK2 (968 residues) expressed in baculovirus infected sf9 cells to ID50 for human recombinant GST-tagged LRRK2 G2019S mutant (970 residues) expressed in baculovirus expression system

C/C(=N\Nc1ccc2ccccc2n1)c1ccccc1O 7.5
Cc1cc(N/N=C/c2ccc(O)cc2)nc2ccccc12 2.4
COc1ccc(-c2nnc3c(NCCN4CCOCC4)cccn23)cc1OC 3.5

# next molecule below
**Q:** What measured Selectivity ratio goes with `COc1ccc(/C=N/Nc2cc(C)c3ccccc3n2)cc1` ?
**A:** 4
